Cited source for all entries: the supplement of paper PMC10567573

B1: LRRC45 (parent)
chain: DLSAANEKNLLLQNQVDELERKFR

# Variants of: B1
# procedure.details: protein stability index of a GFP-peptide fusion (GPS, HEK-293T) (PSI 1-6); higher = more stable;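 also: lentivirally expressed fusions sorted by FACS into six bins by GFP to DsRed ratio, PSI derived from sequencing read proportions per bin multiplied by bin number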
# study.conditions: c terminus: a fixed tail appended
Label 1 (yes) when protein stability index is at or above 4; anything below gets 0 (no).

INPUT: Can S3T be said to have protein stability index at or above 4?
OUTPUT: 0 (no)

INPUT: Can N9M be said to have protein stability index at or above 4?
OUTPUT: 1 (yes)

INPUT: Can N6L be said to have protein stability index at or above 4?
OUTPUT: 0 (no)

INPUT: Can L11S be said to have protein stability index at or above 4?
OUTPUT: 1 (yes)

INPUT: Can E18Q be said to have protein stability index at or above 4?
OUTPUT: 0 (no)

INPUT: Can E18W be said to have protein stability index at or above 4?
OUTPUT: 0 (no)

INPUT: Can R24H be said to have protein stability index at or above 4?
OUTPUT: 1 (yes)

INPUT: Can N14M be said to have protein stability index at or above 4?
OUTPUT: 0 (no)

INPUT: Can E18R be said to have protein stability index at or above 4?
OUTPUT: 0 (no)

INPUT: Can A4V be said to have protein stability index at or above 4?
OUTPUT: 0 (no)

INPUT: Can N14V be said to have protein stability index at or above 4?
OUTPUT: 0 (no)

INPUT: Can R24A be said to have protein stability index at or above 4?
OUTPUT: 1 (yes)

INPUT: Can D1E be said to have protein stability index at or above 4?
OUTPUT: 0 (no)

INPUT: Can R24C be said to have protein stability index at or above 4?
OUTPUT: 1 (yes)

INPUT: Can A5W be said to have protein stability index at or above 4?
OUTPUT: 0 (no)

INPUT: Can L2P be said to have protein stability index at or above 4?
OUTPUT: 1 (yes)

INPUT: Can L2A be said to have protein stability index at or above 4?
OUTPUT: 1 (yes)

INPUT: Can K22Y be said to have protein stability index at or above 4?
OUTPUT: 0 (no)

INPUT: Can L19G be said to have protein stability index at or above 4?
OUTPUT: 1 (yes)

INPUT: Can L10A be said to have protein stability index at or above 4?
OUTPUT: 1 (yes)
